biological target: NAMPT (human, recombinant, C-terminally His-tagged) (Homo sapiens, UniProt P43490); assay: Time-Resolved Fluorescence Resonance Energy Transfer (TR-FRET) Binding Assay of NAMPT; conditions: without substrates; 6.8 nM NAMPT, 200 nM probe, 3 hours equilibration
Sequence (P43490 whole entry): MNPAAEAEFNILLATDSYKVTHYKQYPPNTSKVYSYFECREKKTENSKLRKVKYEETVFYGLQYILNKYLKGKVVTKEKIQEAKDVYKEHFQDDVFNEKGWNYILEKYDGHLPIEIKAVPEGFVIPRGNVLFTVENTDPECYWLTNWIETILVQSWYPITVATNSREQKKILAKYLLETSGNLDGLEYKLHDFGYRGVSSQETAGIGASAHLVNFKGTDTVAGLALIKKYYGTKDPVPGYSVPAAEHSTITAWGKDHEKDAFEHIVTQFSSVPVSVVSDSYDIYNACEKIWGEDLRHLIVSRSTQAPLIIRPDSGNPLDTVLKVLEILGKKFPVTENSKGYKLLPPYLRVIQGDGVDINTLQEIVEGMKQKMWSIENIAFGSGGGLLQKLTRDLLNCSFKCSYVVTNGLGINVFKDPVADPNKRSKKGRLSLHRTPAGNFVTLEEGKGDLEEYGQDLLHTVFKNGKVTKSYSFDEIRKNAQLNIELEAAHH
PROPERTY_MEASURED: log10 of IC50 (log10 of the value in nM)
Scale type: logarithmic (base 10). Underlying IC50 unit: nM.

Some entries whose results are on file:
compound="O=C(NCc1ccn2ccnc2c1)c1ccc(-c2cnn(CC3CCC3)c2)s1 [Example 475]" endpoint_result=0.99
compound="CC(C)OCC(=O)Nc1ccc(C(=O)NCc2ccc3nccn3c2)cc1 [Example 82]" endpoint_result=2.55
compound="O=C(NC1(c2ccc(C(=O)NCc3ccn4ccnc4c3)s2)COC1)c1ccccc1 [Example 325]" endpoint_result=2.26
compound="O=C(NCc1ccn2ccnc2c1)c1ccc(C2CCN(C(=O)c3ccco3)C2)cc1 (centres unmarked) [Example 590]" endpoint_result=2.82

For the next question, use this compound.
Simply: O=C(NCc1ccn2ccnc2c1)c1ccc(C2CCN(C(=O)c3cccnc3)C2)cc1 (centres unmarked) [Example 609] , NAMPT (human, recombinant, C-terminally His-tagged) (Homo sapiens, UniProt P43490), log10 of IC50 = 2.78

====

target: NAMPT (human, recombinant, C-terminally His-tagged) (Homo sapiens); assay: Time-Resolved Fluorescence Resonance Energy Transfer (TR-FRET) Binding Assay of NAMPT; settings: without substrates; 6.8 nM NAMPT, 200 nM probe, 3 hours equilibration
# IC50 per record follows
Return type: number; implicit unit nM.

molecule=CC1(Cn2cc(-c3ccc(C(=O)NCc4ccn5ccnc5c4)s3)cn2)COC1 unit_info=nM endpoint_result=31.3
molecule=O=C(Nc1ccc(C(=O)NCC2CCCC2)cc1)Nc1ccc2nccn2c1 unit_info=nM endpoint_result=114
molecule="O=C(NCc1ccn2ccnc2c1)Nc1ccc(OC2CN(C(=O)C3COCCO3)C2)cc1 (centres unmarked)" unit_info=nM endpoint_result=102

Consider CC(C)C(=O)N1CCC(c2ccc(C(=O)NCc3ccn4c(Cl)cnc4c3)cc2)CC1 . Its measured IC50 is 3250

Consider O=C(NCc1ccn2ccnc2c1)Nc1ccc(C2CN(C(=O)CC3CCOCC3)C2)cc1 . Its measured IC50 is 459

Consider O=C(NCc1ccn2ccnc2c1)Nc1ccc(C2CCN(C(=O)[C@@H]3CCCO3)CC2)cc1 . Its measured IC50 is 49.5

Consider CCC(C)(C)C(=O)N1CCC(c2ccc(C(=O)NCc3ccn4ccnc4c3)cc2)C1 (centres unmarked) . Its measured IC50 is 457

Consider O=C(NCc1ccn2ccnc2c1)c1ccc(-c2cnn(CC3CCCS(=O)(=O)C3)c2)s1 (centres unmarked) . Its measured IC50 is 36

====

Recorded log10 IC50 values (NAMPT (Homo sapiens, UniProt P43490)) are given below.
Scale type: logarithmic (base 10). Underlying IC50 unit: nM.

Some entries whose results are on file:
compound=CC(=O)N1CCC(c2ccc(C(=O)NCc3ccn4ccnc4c3)s2)CC1 endpoint_result=-0.25
compound=O=C(CC1CCOCC1)Nc1ccc(NC(=O)NCc2ccc3nccn3c2)cc1 endpoint_result=-0.21

Consider CC(C)Cn1cc(-c2sc(C(=O)NCc3ccn4ccnc4c3)cc2Cl)cn1 . Its measured log10 IC50 is -0.11

Consider O=C(NCc1ccn2ccnc2c1)c1ccc(OC2CCN(C(=O)c3ccccc3)CC2)cc1 . Its measured log10 IC50 is -0.61

Consider O=C(NCc1ccc2nccn2c1)c1ccc(C2=CCN(C(=O)CC3CCCC3)CC2)cc1 . Its measured log10 IC50 is -0.48

Consider O=C(Nc1ccc(C(=O)NCC2CCCO2)cc1)Nc1ccc2nccn2c1 (centres unmarked) . Its measured log10 IC50 is -0.40

Consider O=C(NCc1ccn2ccnc2c1)c1ccc(C2CCN(C(=O)[C@@H]3CCCO3)CC2)cc1 . Its measured log10 IC50 is -0.56

Consider COCCC(=O)N(Cc1ccc(C#N)cc1)c1ncc(C(=O)Nc2ccc3nccn3c2)s1 . Its measured log10 IC50 is 0.41

Data provenance is patent US9187472B2.
